System Under Test: Histamine H3 receptor (Homo sapiens)
Sequence (Q9Y5N1 whole entry): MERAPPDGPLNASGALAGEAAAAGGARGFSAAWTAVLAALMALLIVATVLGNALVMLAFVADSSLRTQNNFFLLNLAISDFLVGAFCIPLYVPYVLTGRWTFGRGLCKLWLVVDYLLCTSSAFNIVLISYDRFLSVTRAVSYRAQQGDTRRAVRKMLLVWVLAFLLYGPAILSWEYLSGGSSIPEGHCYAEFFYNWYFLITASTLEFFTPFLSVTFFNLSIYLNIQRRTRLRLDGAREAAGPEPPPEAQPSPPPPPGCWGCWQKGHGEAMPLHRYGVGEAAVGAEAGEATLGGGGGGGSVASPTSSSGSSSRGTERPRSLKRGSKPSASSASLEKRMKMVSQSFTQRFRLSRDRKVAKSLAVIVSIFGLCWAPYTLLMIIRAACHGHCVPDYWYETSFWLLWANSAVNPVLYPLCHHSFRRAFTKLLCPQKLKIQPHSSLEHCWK
Metric Name: pKi
Numbers only, as −log10 of the molar value.

Note to self: pKi recorded for `CN[C@H]1CC[C@@]2(C)C(=CC[C@H]3[C@@H]4CC[C@@H]5[C@H](C)N(C)C[C@@]54CC[C@@H]32)C1` was 7.42

###

System Under Test: Histamine H3 receptor (Rattus norvegicus)
Sequence (Q9QYN8 whole entry): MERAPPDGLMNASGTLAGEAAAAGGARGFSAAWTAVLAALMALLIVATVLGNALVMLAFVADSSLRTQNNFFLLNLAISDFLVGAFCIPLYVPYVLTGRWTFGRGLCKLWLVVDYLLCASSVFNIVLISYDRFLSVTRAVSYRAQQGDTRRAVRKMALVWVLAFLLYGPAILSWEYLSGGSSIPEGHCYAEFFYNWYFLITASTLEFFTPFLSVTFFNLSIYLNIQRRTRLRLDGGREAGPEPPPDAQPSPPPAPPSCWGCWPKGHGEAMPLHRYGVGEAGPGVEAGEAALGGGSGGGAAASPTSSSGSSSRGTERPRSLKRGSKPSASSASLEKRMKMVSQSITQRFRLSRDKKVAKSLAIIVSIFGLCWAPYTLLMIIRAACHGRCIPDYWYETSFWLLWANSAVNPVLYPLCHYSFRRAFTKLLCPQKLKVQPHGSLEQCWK
Metric Name: pKi
Answers are plain numbers, as −log10 of the molar value.

pKi recorded for this compound, `CN[C@H]1CC[C@@]2(C)C(=CC[C@H]3[C@@H]4CC[C@@H]5[C@H](C)N(C)C[C@@]54CC[C@@H]32)C1` , is 6.52
